Every entry's value here was drawn from paper PMC12152147.

Below is a list of entries, each paired with its recorded IC50 value.
# Test system: primary AML specimens
# EXPERIMENT_NOTES: Dose-response assays in primary AML specimens (6 days, CellTiterGlo)
# Assay type: cell-based, human
# CONDITION: Homo sapiens, 144 h, primary AML specimen 08H018; 6 days; read-out: IC50
Numbers only; they are read as nM.

Answered cases to consult:
query: Recorded IC50 of CN(C)c1ccc(CC(=O)Nc2ncc(SCc3cccnc3)s2)cc1 [S656] , please.
result: 2210

query: Recorded IC50 of Cn1cc(-n2cnc3c(NCc4nc5cc(Cl)c(Cl)cc5[nH]4)nc(N4CCOCC4)nc32)cn1 [SR4835] , please.
result: 41.3

query: Recorded IC50 of CC(C)(C)c1cnc(CSc2cnc(NC(=O)C3CCNCC3)s2)o1 [SNS-032] , please.
result: 618

Consider the additional molecule presented here.
query: Recorded IC50 of CN(C)C/C=C/C(=O)Nc1ccc(C(=O)N2CCC[C@@H](Nc3ncc(Cl)c(-c4c[nH]c5ccccc45)n3)C2)cc1 [THZ531] , please.
result: 292

====

# Test system: primary AML specimens
# EXPERIMENT_NOTES: Dose-response assays in primary AML specimens (6 days, CellTiterGlo)
# Format: cell-based, human
# CONDITION: Homo sapiens, 144 h, primary AML specimen 09H070; 6 days; read-out: IC50
Below is a list of entries, each paired with its recorded pIC50 value.
Notebook: values listed as pIC50 are -log10 of the concentration (mol/L).

Answered cases to consult:
query: Recorded pIC50 of CN(C)c1ccc(CC(=O)Nc2ncc(SCc3cccnc3)s2)cc1 , please.
result: 5.65

query: Recorded pIC50 of CN(C)C/C=C/C(=O)Nc1ccc(C(=O)N2CCC[C@@H](Nc3ncc(Cl)c(-c4c[nH]c5ccccc45)n3)C2)cc1 , please.
result: 6.81

query: Recorded pIC50 of CC(C)(C)c1cnc(CSc2cnc(NC(=O)C3CCNCC3)s2)o1 , please.
result: 6.91

Consider the additional molecule presented here.
query: Recorded pIC50 of Cn1cc(-n2cnc3c(NCc4nc5cc(Cl)c(Cl)cc5[nH]4)nc(N4CCOCC4)nc32)cn1 , please.
result: 6.91

====

Below is a list of entries, each paired with its recorded pIC50 value.
# Tested on: OCI-AML5 cells expressing shRNAs targeting CDK1, 2, 4, 7, 9, cyclin K
# EXPERIMENT_NOTES: Dose response in OCI-AML5 expressing shRNAs targeting CDK1, 2, 4, 7, 9, cyclin K or control
# Format: cell-based, H. sapiens
# CONDITION: OCI-AML5 expressing shRNA CDK2; read-out: IC50 shRNA CDK2
Notebook: values listed as pIC50 are -log10 of the concentration (mol/L).

Answered cases to consult:
query: Recorded pIC50 of O=C(Cc1ccc(CNC(=O)OCC2c3ccccc3-c3ccccc32)cc1)Nc1ncc(SCc2cccnc2)s1 [UOM-005432] , please.
result: 6.05

query: Recorded pIC50 of CC(C)(C)OC(=O)N1CCC(C(=O)Nc2ncc(SCc3cccnc3)s2)CC1 [UOM-005205] , please.
result: 5.53

query: Recorded pIC50 of O=C(Cc1ccccc1)Nc1ncc(SCc2cccnc2)s1 [UOM-005190] , please.
result: 5.57

query: Recorded pIC50 of O=C(Cc1ccc(NC(=O)C23CC4CC(CC(C4)C2)C3)cc1)Nc1ncc(SCc2cccnc2)s1 [UOM-005477] , please.
result: 5.96

query: Recorded pIC50 of CN(C)c1ccc(CC(=O)Nc2ncc(C(C)(C)C)s2)cc1 [UOM-005605] , please.
result: 5.94

Consider the additional molecule presented here.
query: Recorded pIC50 of COc1ccc2cc([C@H](C)C(=O)Nc3ncc(SCc4cccnc4)s3)ccc2c1 [UOM-005431] , please.
result: 5.93
